# Assay Method Text: yeast display, Sf9 membrane polyspecificity reagent, FACS + sequencing; frameworks hold sequencing errors
Property Measured: polyreactivity (PSR sort gate)

Biosequence: QVQLVESGGGFVQAGGSLRFSCAAYGSTFNQYAMGWYRQAPGKEREFVASITFSGGRTYYADSVQGRFTLSRDNEQNTVYLQMNSLKTEDPAVSYCNAVGYTPRKPSKFDYRGQGTQVTVSS
Reported Measurement: low polyreactivity
//
Biosequence: QVQLVESGGGLVQAGGSLRLSCAASGSIFPIYAMGWYRQAPGKERELVAAISGSGARTYYADSVKGRFTISRDNAKNTVYLQMNSLKPEDTAVYYCNAKYGYDSEARIVKPVRYDYWGQGTQVTVSS
Reported Measurement: high polyreactivity
//
Biosequence: QVQLVESGGGLVQAGGSLRLSCAASGLTFGRYAMGWYRQAPGKERELVAAITASGGITYYADSVKGRFTISRDNAKNTVYLQMNSLKPEDTAVYYCAADGEVKYDYWGQGTQVTVSS
Reported Measurement: low polyreactivity
//
Biosequence: QVQLVESGGGLVQAGGSLRLSCAASGSIFTRNAMGWYRPAPGKERELVAAISRRGVSTYYADSVKGRFTTSRDNAKNTVYLQMNSLKPEDTAVYYCNKLSSYVVARRTTEYDYWGQGTQVTVSS
Reported Measurement: high polyreactivity
//
Biosequence: QVQLVESGGGLVQAGGSNRLSCADSGLIFGFNTMGSYRQAPAKEREMVAVISSSGGSTYYADSVKARFTISRDNAKKTVYFQMNSLKPEDTAVYYSAARAYPVRYRRRDYWGQGTQVTVSS
Reported Measurement: high polyreactivity

---

# Assay Method Text: yeast display, Sf9 membrane polyspecificity reagent, FACS + sequencing; frameworks hold sequencing errors

Biosequence: QVQLVESGGGLVQAGGSLRLSFAASGGTFYTYVMGWYRQAPGKERELVAAISGSGGSTYYADSVKGRFTISRDNAKNTVYLQMNSLKPEDTAVYYCAAEGFVTWYRQGQVYYWGQGTQVTVSS
polyreactivity (PSR sort gate): high polyreactivity

Biosequence: QVQLVESGGGLVQAGGSLRLSCAASGRIFSYYAMGWYRQAPGKERELVATISYSGGSTYYADSVKGRFTISRDNAKNTVYLQMNSLKPEDTAVYYCAATRYPYYSFVRFPSRRFNYWGQGTQVTVSS
polyreactivity (PSR sort gate): high polyreactivity

---

# Assay Method Text: yeast display, Sf9 membrane polyspecificity reagent, FACS + sequencing; frameworks hold sequencing errors

Biosequence: QVQLVESGGGLVQAGGSLRLSCAASGSTFWYNAMGWYRQAPGKERELVARISYSGGSTYYADSVKGRFTISRDNAKNTVYLQMNSLKPEDTAVYYCAARRPYKYDYWGQGTQVTVSS
polyreactivity (PSR sort gate): high polyreactivity
//
Biosequence: QVQLVESGGGLVQAGGSLRLSCAVSGRIFRRNVMGWYRQAPGKDRELVAGISDSGDSTYYADSVKVRFTISRDNAKNTVYLQMNSLKPEDTAVYYCNARYSTTYYGTIYRGMDYWGQGTQVNVSS
polyreactivity (PSR sort gate): high polyreactivity
//
Biosequence: QVQLVESGGGLVQAGGSLRLSCAASGSTFHYYAMGWYRQAPGKERELVAAISKRGGSTYYADSVKGRFTISRDNAKNNVYLQMNSLKPEDTSVYYCAKTWVSYSRYHYEYWGQGTQVTVSS
polyreactivity (PSR sort gate): high polyreactivity
//
Biosequence: QVQLVESGGGLVQSGGSLRLSCAASGSTFASNAMGWYRQAPGTEMELVAAISRSADSTYYADSVKGRFTISRDNAKNTVYLQMNSLKPEDTAVYYCAARHSRYRNPKYYYWGQGTQVTVSS
polyreactivity (PSR sort gate): high polyreactivity
//
Biosequence: QVQLVESGGGLVQAGGSLRLSCAASGSTFRYNAMGWYRQAPGKERELVAAINRGGGTDYADSVKGRFTISRDNAKNTVYLQMNSLKPEDTAVYYCAAAYLRYVSTQYHYDDWGQGTQVTVSS
polyreactivity (PSR sort gate): low polyreactivity
//
Biosequence: QVQLEESGGGLVQAGGSLRLSCAASGRIFRANSMGWYRQEPGKERELVAAISFSGGGTYYADSVKGRFKISRDNAKNTVYLQMNCLKPEDTAVYYCAADWYVYSPYDYWGQGTQVTVSS
polyreactivity (PSR sort gate): low polyreactivity
//
Biosequence: QVQLVESGGGLVQAGGSLRLSYAASGRTFYRYAMGWYRQAPGKERELVAVITSGSRTKYADSVKGRFTISRDNAKNTVYLQMNSLKPEDTAFYYCAARGLALEGKSSGEYWGQGTQVTVSS
polyreactivity (PSR sort gate): high polyreactivity
//
Biosequence: QVQLVESWGGLVQAGGSLRLSCAASGSTFAGYAMGWYRQAPGKERELVAAIDWGGDSTYYADSVKGRFTISRDNAKNTVYLQMNSLKPEDTAVYYCAAYWYSRYDYDYWGQGTQVTVSS
polyreactivity (PSR sort gate): low polyreactivity
//
Biosequence: QGQLVESGGGLVQAGGSLRLTCAASGSTFDQNVMGWYRQAPGKERELVDTINFSGDSTYYADSVKGRFTISRDNAKNTVYLQRNSLKPEDTAVYYCAVDWGEYIDTSVKRDISSYWGQGTQVTVSS
polyreactivity (PSR sort gate): low polyreactivity
//
Biosequence: QVQLVESGGGLVQAGGSLRLSCAASGSTFARYAMGWYRQAPGKERELVAAITWSGGSTYYADSVKGRFTISRDNAKNTVYLQMNSLKPEDTAVYYCAARRRVGYYWGQGTQVTVSS
polyreactivity (PSR sort gate): high polyreactivity
//
Biosequence: QVQLVESGGGLVQAGGSLRLSCSACGSIFFYYAMGWYRQAPGKERELVAAITFTGGSTYYADSVKGRFTISRDNAKNTVYLRMNSLKPEDTAVYYCAADWYYGDEYEYWGQGTQVTVSS
polyreactivity (PSR sort gate): high polyreactivity

---

# Assay Method Text: yeast display, Sf9 membrane polyspecificity reagent, FACS + sequencing; frameworks hold sequencing errors

Biosequence: QVQLVESGGGLVQAGGSLRLSCAASGSTFVPYAMGWYRQAPGKERELVAAITTSGGNTYYADSVKGRFTISRDNAKNTVYLQMNSLKPEDTAVYYCAADTYRRFDYWGQGTQVTVSS
polyreactivity (PSR sort gate): low polyreactivity

Biosequence: QVQLVESGGGLVQAGGSLRLSCAASGSTFNYNAMGWYRQAPGKERELVAAITGTGGDTYYADSVKGRITISRDNAKNTVYLQMNILKPEDTAVYYCDAEEDYWGQGTQVTLSS
polyreactivity (PSR sort gate): low polyreactivity

Biosequence: QVQLVESGVGLVQAGGILRLSCAASGSSFRGYAMGWYRQAPGKERELVAAISSRGARTHYADSVKGRFTISRDNAKNTVYLQMNRLKPEDTAVYYCNKRQVFVSTGEYEFDYWGQGTQVTVSS
polyreactivity (PSR sort gate): low polyreactivity

---

# Assay Method Text: yeast display, Sf9 membrane polyspecificity reagent, FACS + sequencing; frameworks hold sequencing errors
Property Measured: polyreactivity (PSR sort gate)

Biosequence: QVQLVDSGGGLVQAGGSLRLSCAASGFTIVHNAMGWYRQAPGKERELVAAISSSGGRTYYADSVKGRFTISRDNAKNTVYLQMNSLKPEDTAVYYCNARGYRGYDYWGQGTQVTVSS
Property Measured: polyreactivity (PSR sort gate)
Reported Measurement: high polyreactivity
--
Biosequence: QVQLVESGGGLVQAGGSLRLSCAASGFTFAYNAMGWYRQAPGKERELDAAINSSGGTTYYADSVKGRFTISRDNAKNTVYLQMNSLKPEDTAVYYCAAVYSTSYSGSFPGYDYWGQGTQVTVSS
Property Measured: polyreactivity (PSR sort gate)
Reported Measurement: low polyreactivity
--
Biosequence: QVQLVESGGGLVQAGGSLRLSCAASGSIFYDYAMGWYRQAPGKERELVADITDDSTNYADSVKGRFTISRDNAKNTVYLQMNSLKPEDTAVYYCAVDWYWGWYWDGGVLTYYYWGQGTQVTVSS
Property Measured: polyreactivity (PSR sort gate)
Reported Measurement: low polyreactivity
--
Biosequence: QVQLVESGGGLVQAVGSLRLSCAASGSIFPVYAMGWYRQAPGKERELVADITYTTGSTYYADSVKRRFTISRDNAKNTFYLQMNSLKPEDTAVYYCAKDFGFQSDSWGQGTQVTVSS
Property Measured: polyreactivity (PSR sort gate)
Reported Measurement: low polyreactivity
--
Biosequence: QVQLVESGGGLVQAGGSLRLSCAASGLIFPYYAMGWYRQAPGKERELVAAISGSGGRTYNADSVKWRFTISRDNAKNTVYLQMNSLKPEDPAVYYCAAAVLDRYTRYIWYIFDYWGQGTQVTVSS
Property Measured: polyreactivity (PSR sort gate)
Reported Measurement: high polyreactivity

---

# Assay Method Text: yeast display, Sf9 membrane polyspecificity reagent, FACS + sequencing; frameworks hold sequencing errors

Biosequence: QVQLVESGGGLVQAGGSLRLSCAASGITFQNYAMGWYRQAPGKEMELVAAITRSGGRTYYADSVKGRFTNSRDNANYTVYLQMNSLKQEDTAVYYCAVYGIGRPYWYDYWGQGTQVTVSS
polyreactivity (PSR sort gate): high polyreactivity

Biosequence: QVQLVESGGGLVQAGGSLRLSCAASGITFTPNAMGWYRQAPGKEREFVAAITYSGGSTYYADSVKGRFTISRDNAKNTVYLQMNSLKPEDTAVYYCAAVYYLLYYEAYYYWGQGTQVTVSS
polyreactivity (PSR sort gate): low polyreactivity

Biosequence: QVQLVESGGGLVQAAGSLRLSCAASGRIFKLYAMGWYRQAPGKDRELVAGITASGGNTYYADSVKGRFTISRDNAKNTVYLLMNSLKPEDTAVYYCNADRYNKYWYDYWGQGTQVTVSS
polyreactivity (PSR sort gate): high polyreactivity

Biosequence: QVQLVESGGGLVKAGGSLRLSCAASGRIFYGYAMGWYRQAPGKERELVAAITRSGTSTYYADSVKGRFTISRDNAKNTVYLQMHSLKPEDTAVYYCAAVERSLRSPYGDYGYWGHGTQVTVSS
polyreactivity (PSR sort gate): high polyreactivity

Biosequence: QVQLVESGGGLVQAGGSLRLSCAASGRIFGYYAMGWYRQAPGKERELVAAISQGGGSTYADSVKGRFTISRDNAKNTVYLQMNSLKPEDTAVYYCAKRRRTGYGYWGQGTQVTVSS
polyreactivity (PSR sort gate): high polyreactivity

Biosequence: QVQLVESGGGLVQAGGSLRLSCAASGSTFPSYAMGWYRQAHGKERELVAAINSGGGTNYADSVKGRFTISRDNAKNTVYLQMHSLKPEDTAVYYCDKSRYDYTKTEGGYWGQATQVTVSS
polyreactivity (PSR sort gate): low polyreactivity

Biosequence: QVQLVESGGGLVQAGGSLRLSCAASGRTFGRYTMGWYRQAPGKERELVAAITGRGGSTFYADSVKGRFTISRDNAKNTVYLQMNSLKPEDTAVYYCAARRTSIKDQFYYWGQGTQVTVSS
polyreactivity (PSR sort gate): high polyreactivity

Biosequence: QVHLVESGGGIVQAGGSLRLSCAASGIIFMDNAMGWYRQAPGKERELVAAITTGGITYYADSVKGRFTISRDNAKNTVYLQMNSLKPEDTAVYYCAADNEWPRYDYWGQGTQVTVSS
polyreactivity (PSR sort gate): low polyreactivity

Biosequence: QVQLVESGGGLVQAGGSLRLSCAASGRIFSGYAMGCYRQAPGKERELVAAITSRSGSTYYADSVKGRFTISRDNAKKTVYLQMNSLKPEDTAVYYCAAEYVRFYWYTSDYWGQGTQVTVSS
polyreactivity (PSR sort gate): low polyreactivity

Biosequence: QVQLVESGGGLVQAGGSLRLSCAASGYTIFSYGMGWYRQAPGKERELVAAISSGDRTNYADSVKGRFTISRDNAKNTVYLQMNSLKPEDTAVYYCNADRASSSVGYSDDFGHDSWGQGTQVTVSS
polyreactivity (PSR sort gate): low polyreactivity

Biosequence: QGQLVESWGGLVQAGGSLRLSCAASGSTLRRYAMGWYRQAPGKERELVAAISRRGGSTYYADSVKGRFSISRDFAKNTVYLEMNSLKPEDTAVYYCAAKGFSTRQFDYWGQGTQVTVSS
polyreactivity (PSR sort gate): high polyreactivity
